- TEST_TARGET: rat intestinal α-glucosidase (Rattus norvegicus, UniProt P23739)
- Construct: rat intestinal α-glucosidase solution; from tissue; host or cells: rat intestine
- Sequence (P23739 whole entry): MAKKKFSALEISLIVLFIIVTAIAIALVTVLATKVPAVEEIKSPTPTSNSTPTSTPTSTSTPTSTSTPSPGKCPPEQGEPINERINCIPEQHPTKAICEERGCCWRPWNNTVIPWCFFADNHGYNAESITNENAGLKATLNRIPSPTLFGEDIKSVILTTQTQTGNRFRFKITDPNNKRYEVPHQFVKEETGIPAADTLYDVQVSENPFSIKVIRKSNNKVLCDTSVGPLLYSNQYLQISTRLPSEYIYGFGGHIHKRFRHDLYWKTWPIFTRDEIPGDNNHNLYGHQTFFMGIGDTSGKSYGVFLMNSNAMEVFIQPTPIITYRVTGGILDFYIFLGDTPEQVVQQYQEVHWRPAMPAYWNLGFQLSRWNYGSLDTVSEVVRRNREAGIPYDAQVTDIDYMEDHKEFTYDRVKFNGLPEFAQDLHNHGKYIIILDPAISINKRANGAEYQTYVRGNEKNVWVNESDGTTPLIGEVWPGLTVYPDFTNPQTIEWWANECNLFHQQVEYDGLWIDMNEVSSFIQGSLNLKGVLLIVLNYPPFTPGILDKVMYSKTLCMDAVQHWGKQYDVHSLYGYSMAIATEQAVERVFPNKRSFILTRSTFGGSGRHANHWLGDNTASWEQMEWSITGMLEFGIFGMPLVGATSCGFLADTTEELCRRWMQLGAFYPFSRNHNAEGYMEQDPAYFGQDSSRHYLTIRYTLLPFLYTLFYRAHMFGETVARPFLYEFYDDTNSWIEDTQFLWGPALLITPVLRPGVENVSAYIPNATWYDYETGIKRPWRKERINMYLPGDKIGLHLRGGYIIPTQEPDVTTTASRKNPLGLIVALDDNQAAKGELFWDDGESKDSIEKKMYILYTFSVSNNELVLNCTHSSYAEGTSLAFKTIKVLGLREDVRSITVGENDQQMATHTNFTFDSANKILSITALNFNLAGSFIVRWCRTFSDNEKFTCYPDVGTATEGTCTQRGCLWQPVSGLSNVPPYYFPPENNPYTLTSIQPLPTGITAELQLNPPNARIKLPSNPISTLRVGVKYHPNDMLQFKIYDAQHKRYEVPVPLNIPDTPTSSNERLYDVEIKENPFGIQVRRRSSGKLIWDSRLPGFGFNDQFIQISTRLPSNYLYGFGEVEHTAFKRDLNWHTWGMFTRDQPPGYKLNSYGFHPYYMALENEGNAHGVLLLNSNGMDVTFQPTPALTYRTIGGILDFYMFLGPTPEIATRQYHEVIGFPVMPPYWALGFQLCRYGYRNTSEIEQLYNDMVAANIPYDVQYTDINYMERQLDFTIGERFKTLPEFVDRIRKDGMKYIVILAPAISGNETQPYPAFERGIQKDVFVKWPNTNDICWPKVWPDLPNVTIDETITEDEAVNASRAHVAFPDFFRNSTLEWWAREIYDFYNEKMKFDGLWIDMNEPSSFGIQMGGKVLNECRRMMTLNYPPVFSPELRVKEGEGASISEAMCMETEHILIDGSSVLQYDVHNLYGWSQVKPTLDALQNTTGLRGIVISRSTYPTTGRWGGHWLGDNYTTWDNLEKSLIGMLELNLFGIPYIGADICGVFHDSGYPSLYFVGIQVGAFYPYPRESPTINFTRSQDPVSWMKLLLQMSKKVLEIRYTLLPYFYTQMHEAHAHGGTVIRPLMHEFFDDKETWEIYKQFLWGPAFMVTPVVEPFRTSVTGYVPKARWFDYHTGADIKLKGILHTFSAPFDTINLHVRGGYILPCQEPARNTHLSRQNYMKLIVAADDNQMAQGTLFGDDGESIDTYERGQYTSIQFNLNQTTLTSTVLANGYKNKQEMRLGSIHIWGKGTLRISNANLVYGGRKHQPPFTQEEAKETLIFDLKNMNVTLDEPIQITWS
- PROTOCOL_TEXT: α-Glucosidase inhibition assay
- Assay type: biochemical
MEASURED_QUANTITY: IC50

Entry C=C(C)[C@@H]1CC[C@]2(C)CC[C@]3(C)[C@H](CC[C@@H]4[C@@]5(C)CC[C@H](O)C(C)(C)[C@@H]5CC[C@]43C)[C@@H]12 has what IC50?
> 2340 µM
